Species on record: Rattus norvegicus
Test: Open TG-GATES - Regimen: Daily Repeat
Type: toxicity, organism-based, Sprague-Dawley
Parameters: regimen Daily Repeat, gender Male, age 6 weeks
Settings: in vivo, po, 1000 mg/kg, […], tissue Plasma, route gavage, dose level High, time 14 day
readoutType: PL (mg/dL)
Unit mg/dL implied. Number only.

Worked set:
compound	outputUnit	PL
CCOc1ccc(NC(=O)CC(C)O)cc1 (stereo unspecified)	mg/dL	150.8
COC1=CC(=O)C[C@@H](C)[C@]12Oc1c(Cl)c(OC)cc(OC)c1C2=O	mg/dL	138.6
CC(C)OC(=O)C(C)(C)Oc1ccc(C(=O)c2ccc(Cl)cc2)cc1 [FENOFIBRATE]	mg/dL	138
CCOC(=O)CCC(=O)O[C@H]1[C@H](O[C@@H]2[C@@H](C)[C@H](O[C@H]3C[C@@](C)(OC)[C@@H](O)[C@H](C)O3)[C@@H](C)C(=O)O[C@H](CC)[C@@](C)(O)[C@H](O)[C@@H](C)C(=O)[C@H](C)C[C@@]2(C)O)O[C@H](C)C[C@@H]1N(C)C [ERYTHROMYCIN ETHYLSUCCINATE]	mg/dL	163.2
NC(N)=Nc1nc(CSCCC(N)=NS(N)(=O)=O)cs1	mg/dL	134.8

IN: Look up PL of COc1ccc2[nH]c([S+]([O-])Cc3ncc(C)c(OC)c3C)nc2c1 (stereo unspecified) and report it.
OUT: 206.6

----------
Eos listing for selected molecules.
Species on record: Rattus norvegicus
Test: Open TG-GATES - Regimen: Single
Assay type: toxicity, organism-based, Sprague-Dawley
Set-up: regimen Single, gender Male, age 6 weeks
Conditions: in vivo, po, 1000 mg/kg, 6 h, tissue Blood, route gavage, dose level High
Give a bare numeral; the unit % is implied.

Would you please look over these solved cases?
molecule	outputUnit	Eos
NC(N)=Nc1nc(CSCCC(N)=NS(N)(=O)=O)cs1	%	1
COc1ccc2[nH]c([S+]([O-])Cc3ncc(C)c(OC)c3C)nc2c1 (stereo not given)	%	1.2
CCOC(=O)CCC(=O)O[C@H]1[C@H](O[C@@H]2[C@@H](C)[C@H](O[C@H]3C[C@@](C)(OC)[C@@H](O)[C@H](C)O3)[C@@H](C)C(=O)O[C@H](CC)[C@@](C)(O)[C@H](O)[C@@H](C)C(=O)[C@H](C)C[C@@]2(C)O)O[C@H](C)C[C@@H]1N(C)C [ERYTHROMYCIN ETHYLSUCCINATE]	%	1
CC(C)OC(=O)C(C)(C)Oc1ccc(C(=O)c2ccc(Cl)cc2)cc1 [FENOFIBRATE]	%	0.6

IN: Given "COC1=CC(=O)C[C@@H](C)[C@]12Oc1c(Cl)c(OC)cc(OC)c1C2=O" , respond with its Eos.
OUT: 1

----------
Species on record: Rattus norvegicus
Test: Open TG-GATES - Regimen: Single
Format: toxicity, organism-based, Sprague-Dawley
Parameters: regimen Single, gender Male, age 6 weeks
Details: in vivo, po, 1000 mg/kg, 6 h, tissue Blood, route gavage, dose level High
readoutType: Neu (%)
Give the value, in units of %, as a plain number.

compound	endpointResult
NC(N)=Nc1nc(CSCCC(N)=NS(N)(=O)=O)cs1 [FAMOTIDINE]	20.6
CCOC(=O)CCC(=O)O[C@H]1[C@H](O[C@@H]2[C@@H](C)[C@H](O[C@H]3C[C@@](C)(OC)[C@@H](O)[C@H](C)O3)[C@@H](C)C(=O)O[C@H](CC)[C@@](C)(O)[C@H](O)[C@@H](C)C(=O)[C@H](C)C[C@@]2(C)O)O[C@H](C)C[C@@H]1N(C)C [ERYTHROMYCIN ETHYLSUCCINATE]	21
COc1ccc2[nH]c([S+]([O-])Cc3ncc(C)c(OC)c3C)nc2c1 (centres undefined) [OMEPRAZOLE]	23.2

Now examine the next entry.
IN: Check the records and state Neu for COC1=CC(=O)C[C@@H](C)[C@]12Oc1c(Cl)c(OC)cc(OC)c1C2=O [GRISEOFULVIN]
OUT: 19
